test system: cultured human mast cells (CHMC); test: CHMC low cell density ionomycin activation: tryptase assay; assay type: cell-based; conditions: Homo sapiens, Mast cell, Low Density CHMC, ionomycin activation, tryptase readout; read-out: CHMC Ionomycin Tryptase
pIC50: −log10 of the molar value.
# Lookup of reported pIC50 keyed by entry

compound: NC(=O)C=Nc1cccc(Nc2ncc(F)c(Nc3cccc(O)c3)n2)c1 [Compound R950219]
pIC50: < 5.00

compound: O=C1COc2ccc(Nc3nc(Nc4cccc(O)c4)ncc3F)cc2N1 [Compound R908702]
pIC50: 5.13

compound: Fc1cnc(Nc2cccc(OCc3ccccc3)c2)nc1Nc1cccc(OCc2ccccc2)c1 [Compound R926394]
pIC50: < 5.00

compound: CC(C)c1ccc(Nc2ncc(F)c(Nc3cccc(O)c3)n2)cc1 [Compound R926778]
pIC50: < 5.00

compound: COC(=O)c1cc2cc(Nc3ncc(F)c(Nc4ccc(Cl)cc4)n3)ccc2o1 [Compound R927026]
pIC50: < 5.00

compound: Fc1cnc(Nc2cccc(-c3ccccc3)c2)nc1Nc1cccc(-c2ccccc2)c1 [Compound R926403]
pIC50: < 5.00

compound: CNC(=O)C1Cc2cc(Nc3ncc(F)c(Nc4ccc(Cl)c(Cl)c4)n3)ccc2O1 (racemic) [Compound R927037]
pIC50: < 5.00

compound: Oc1cccc(Nc2ncc(F)c(Nc3ccc4c(c3)N=CCO4)n2)c1 [Compound R909243]
pIC50: < 5.00

###

tested on: bone marrow derived mast cells (BMMC); test: BMMC high cell density IgE activation: degranulation (hexosiminidase, histamine), leukotriene (LTC4) and cytokine (TNFalpha, IL-6) assays; assay type: cell-based; details: Mus musculus, anti-IgE activation, IL-6 release, read-out: BMMC anti-IgE IL-6 IC50
pIC50: −log10 of the molar value.
# Lookup of reported pIC50 keyed by entry
propertyName: pIC50

compound: OCc1cc2cc(Nc3ncc(F)c(Nc4cccc(O)c4)n3)ccc2o1 [Compound R926707]
propertyName: pIC50
observed: > 7.25

compound: CC(C)Oc1ccc(Nc2nc(Nc3ccc(OCCO)cc3)ncc2F)cc1 [Compound R935160]
propertyName: pIC50
observed: > 6.66

compound: CC(C)Oc1ccc(Nc2nc(Nc3cccc(OCCO)c3)ncc2F)cc1 [Compound R935156]
propertyName: pIC50
observed: > 6.66

compound: Nc1cccc(Nc2ncc(F)c(Nc3ccc4c(c3)OCCO4)n2)c1 [Compound R950207]
propertyName: pIC50
observed: > 6.66

compound: O=C1COc2ccc(Nc3ncc(F)c(Nc4cccc(O)c4)n3)cc2N1 [Compound R909238]
propertyName: pIC50
observed: > 6.66

compound: Oc1cccc(Nc2nc(Nc3ccc4c(c3)N=CCO4)ncc2F)c1 [Compound R909241]
propertyName: pIC50
observed: > 6.66

compound: OCCOc1cccc(Nc2ncc(F)c(Nc3ccc4c(c3)OCCO4)n2)c1 [Compound R935154]
propertyName: pIC50
observed: 7.39

compound: O=C(NCCO)c1cc2cc(Nc3ncc(F)c(Nc4ccc5c(c4)OCCO5)n3)ccc2o1 [Compound R926498]
propertyName: pIC50
observed: > 6.66

###

system: basophils in whole human peripheral blood; assay: Basophil dustmite activation: histamine release assay; format: cell-based; conditions: read-out: Basophils Dust mite Histmine IC50
# Lookup of reported IC50 keyed by entry

compoundStructureString: Oc1cccc(Nc2ncc(F)c(Nc3cccc(O)c3)n2)c1
IC50, nM: 302
--
compoundStructureString: O=C(NCCO)c1cc2cc(Nc3ncc(F)c(Nc4cccc(O)c4)n3)ccc2o1
IC50, nM: 205

Source of measurements: patent US10828301B2
